protocol_summary: Half life in female BALB/c mouse at 38 mg/kg measured up to 168 hrs by HPLC analysis
Format: ADME, organism-based
measurement_conditions: in vivo
observable: half-life

Query string: What value of measured half-life is listed for CCc1c2c(nc3ccc(OCc4ccc(O[C@@H]5O[C@H](C(=O)O)[C@@H](O)[C@H](O)[C@H]5O)c(NC(=O)CCNC(=O)COCCOCCNC(=O)COCCOCCNC(=O)CC[C@H](NC(=O)CCCCCCCCCCCCCCCCC(=O)O)C(=O)O)c4)cc13)-c1cc3c(c(=O)n1C2)COC(=O)[C@]3(O)CC ?
Result string: 3.65 h

###

protocol_summary: Cmax in female BALB/c mouse at 25 mg/kg measured up to 120 hrs by HPLC analysis
Format: ADME, organism-based
measurement_conditions: in vivo
observable: Cmax (µg/mL)
Expressed in µg/mL, but write only the number.

Query string: Consider the compound CCc1c2c(nc3ccc(OCc4ccc(O[C@@H]5O[C@H](C(=O)O)[C@@H](O)[C@H](O)[C@H]5O)c(NC(=O)CCNC(=O)CCCCCN5C(=O)C=CC5=O)c4)cc13)-c1cc3c(c(=O)n1C2)COC(=O)[C@]3(O)CC and give its measured Cmax.
Result string: 50.7

###

protocol_summary: Cmax in female BALB/c mouse at 15 mg/kg measured up to 5 hrs by HPLC analysis
Assay type: ADME, organism-based
measurement_conditions: in vivo
observable: Cmax (ng/mL)
Quick reminder: number only, in ng/mL, skip the unit.

Query string: May I ask what Cmax has been recorded for CCc1c2c(nc3ccc(OC(=O)N4CCC(N5CCCCC5)CC4)cc13)-c1cc3c(c(=O)n1C2)COC(=O)[C@]3(O)CC ?
Result string: 3040

###

protocol_summary: Clearance in female BALB/c mouse at 38 mg/kg measured up to 168 hrs by HPLC analysis
Type: ADME, organism-based
measurement_conditions: in vivo
observable: clearance (mL/min/kg)
Numbers only; they are read as mL/min/kg.

Query string: Returns the measured clearance for the input molecule. Input: CCc1c2c(nc3ccc(OCc4ccc(O[C@@H]5O[C@H](C(=O)O)[C@@H](O)[C@H](O)[C@H]5O)c(NC(=O)CCNC(=O)COCCOCCNC(=O)COCCOCCNC(=O)CC[C@H](NC(=O)CCCCCCCCCCCCCCCCC(=O)O)C(=O)O)c4)cc13)-c1cc3c(c(=O)n1C2)COC(=O)[C@]3(O)CC
Result string: 0.753

###

protocol_summary: in vivo
measurement_conditions: female, BALB/c, mouse, 15 mg/kg
observable: AUC(0-t) at 5 h (ng·h/mL)
The reply should be a number in ng·h/mL, with the unit left off.

Query string: Endpoint output: AUC(0-t) at 5 h of CCc1c2c(nc3ccc(OC(=O)N4CCC(N5CCCCC5)CC4)cc13)-c1cc3c(c(=O)n1C2)COC(=O)[C@]3(O)CC . Value?
Result string: 3120
